Method Notes: polyglutamine aggregate formation blockers (AID 1604)
Assay Context: polyglutamine-induced protein aggregation inhibition assay; stronger effect = higher value; concentration not given here
For each entry below, report its inhibition of aggregation value.
Provide the reading as a plain figure in %.

Q: Give its inhibition of aggregation value. Item: Oc1cccc(O)c1
A: 60.3

Q: Give its inhibition of aggregation value. Item: NC(=O)NO
A: 85.9

Q: Give its inhibition of aggregation value. Item: OCc1ccccc1O
A: 67.8

----------
Method Notes: CRL1545 cell growth, single agent and combined, cisplatin and BGB IC20 combos (AID 1671464);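 further: cells exposed to compound for 96 hours before readout; 0% = vehicle DMSO and 100% = high DMSO killing control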
Assay Context: CRL1545 osteosarcoma cells, measured here: with cisplatin IC20 combination, at 0.5 µM, stronger effect = higher value
For each entry below, report its inhibition value.
Provide the reading as a plain figure in %.

Q: Give its inhibition value. Item: CCn1cc(C(=O)O)c(=O)c2cc3c(cc21)OCO3
A: -6.13

Q: Give its inhibition value. Item: Cc1ccnc2c1NC(=O)c1cccnc1N2C1CC1
A: -13

Q: Give its inhibition value. Item: Nc1nc(=S)c2[nH]cnc2[nH]1
A: -1.16

----------
For each entry below, report its fluorescence slope change value.
Target Under Test: ATP-dependent translocase ABCB1 (Homo sapiens) (UniProt P08183)
Sequence (P08183 whole entry, looked up): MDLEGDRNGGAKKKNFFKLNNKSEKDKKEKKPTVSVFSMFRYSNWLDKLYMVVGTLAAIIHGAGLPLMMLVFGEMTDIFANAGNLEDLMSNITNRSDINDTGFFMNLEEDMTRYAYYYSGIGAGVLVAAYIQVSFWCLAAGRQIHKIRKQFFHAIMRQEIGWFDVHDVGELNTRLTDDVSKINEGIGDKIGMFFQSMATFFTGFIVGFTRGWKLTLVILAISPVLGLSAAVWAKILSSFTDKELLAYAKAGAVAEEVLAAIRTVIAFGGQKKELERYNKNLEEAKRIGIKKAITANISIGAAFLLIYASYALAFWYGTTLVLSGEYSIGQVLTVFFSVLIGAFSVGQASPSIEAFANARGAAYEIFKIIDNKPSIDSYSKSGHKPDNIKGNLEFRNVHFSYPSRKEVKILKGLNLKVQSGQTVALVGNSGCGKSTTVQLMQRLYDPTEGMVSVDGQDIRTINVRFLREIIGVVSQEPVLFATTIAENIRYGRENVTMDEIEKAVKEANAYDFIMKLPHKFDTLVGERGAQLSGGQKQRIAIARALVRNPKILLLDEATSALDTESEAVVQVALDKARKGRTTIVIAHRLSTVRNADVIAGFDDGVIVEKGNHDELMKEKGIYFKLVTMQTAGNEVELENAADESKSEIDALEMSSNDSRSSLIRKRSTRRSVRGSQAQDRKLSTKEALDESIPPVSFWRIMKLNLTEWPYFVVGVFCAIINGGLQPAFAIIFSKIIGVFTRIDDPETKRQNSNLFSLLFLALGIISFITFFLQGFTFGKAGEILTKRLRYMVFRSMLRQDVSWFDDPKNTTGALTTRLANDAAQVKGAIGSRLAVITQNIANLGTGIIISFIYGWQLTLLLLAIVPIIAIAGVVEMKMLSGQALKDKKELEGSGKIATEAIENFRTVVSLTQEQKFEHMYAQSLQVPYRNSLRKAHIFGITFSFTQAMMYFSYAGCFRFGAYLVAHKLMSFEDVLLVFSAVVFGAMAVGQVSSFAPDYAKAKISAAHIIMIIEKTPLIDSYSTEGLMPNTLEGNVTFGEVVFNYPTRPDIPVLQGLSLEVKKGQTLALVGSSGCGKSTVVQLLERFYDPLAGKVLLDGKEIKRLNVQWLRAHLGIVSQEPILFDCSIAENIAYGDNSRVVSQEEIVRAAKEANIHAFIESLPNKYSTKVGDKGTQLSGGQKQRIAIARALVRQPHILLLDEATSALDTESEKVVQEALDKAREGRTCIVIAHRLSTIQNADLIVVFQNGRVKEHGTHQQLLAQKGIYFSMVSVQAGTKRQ
Method Notes: P-glycoprotein substrate transport blockade – cell-based (AID 377)
Assay Context: MDR1-expressing cells, fluorescent substrate accumulation slope; stronger effect = higher value; concentration not given here
Inconclusive results are not listed.
Provide the reading as a plain figure in %.

Q: Give its fluorescence slope change value. Item: O=C1CC2(CCCC2)CC(=O)N1CCCCN1CCN(c2ncccn2)CC1
A: 65.3

Q: Give its fluorescence slope change value. Item: O=NN(CCCl)C(=O)NCCCl
A: 11.5

Q: Give its fluorescence slope change value. Item: CN1CCC(=C2c3ccccc3CC(=O)c3sccc32)CC1
A: 20.2

Q: Give its fluorescence slope change value. Item: CC(Cc1cccc(C(F)(F)F)c1)NCCOC(=O)c1ccccc1 (configuration not stated)
A: 69.3

Q: Give its fluorescence slope change value. Item: CC(C(=O)O)c1ccc(C(=O)c2cccs2)cc1 (configuration not stated)
A: 12.2

Q: Give its fluorescence slope change value. Item: CCN(CC)CCOC(=O)C(Cc1cccc2ccccc12)CC1CCCO1 (configuration not stated)
A: 91.9

Q: Give its fluorescence slope change value. Item: O=C(OCC(O)CO)c1ccccc1Nc1ccnc2cc(Cl)ccc12 (configuration not stated)
A: 88.6

Q: Give its fluorescence slope change value. Item: COc1cc2nc(N3CCN(C(=O)C4COc5ccccc5O4)CC3)nc(N)c2cc1OC (configuration not stated)
A: 75.1

Q: Give its fluorescence slope change value. Item: CC(=O)OC(C)C[N+](C)(C)C (configuration not stated)
A: -0.2

Q: Give its fluorescence slope change value. Item: CCN(CC)CCNC(=O)c1cc(Cl)c(N)cc1OC
A: 27.9

Q: Give its fluorescence slope change value. Item: CCn1cc(C(=O)O)c(=O)c2cc3c(cc21)OCO3
A: 56.5

Q: Give its fluorescence slope change value. Item: Cc1nnc(SCC2=C(C(=O)O)N3C(=O)[C@@H](NC(=O)Cn4cnnn4)[C@H]3SC2)s1
A: -6.8

Q: Give its fluorescence slope change value. Item: CC1=CC(=O)c2ccccc2C1=O
A: 81.2

Q: Give its fluorescence slope change value. Item: CN1CCC(=C2c3ccccc3Sc3ccccc32)CC1
A: 107

Q: Give its fluorescence slope change value. Item: Cc1cc(C(C)(C)C)c(O)c(C)c1CC1=NCCN1
A: 75.3

Q: Give its fluorescence slope change value. Item: C[N+](C)(C)CCOC(N)=O
A: 12.8

Q: Give its fluorescence slope change value. Item: CCCC(C(=O)OCCN(CC)CC)(c1ccccc1)c1ccccc1
A: 180
